# target-entity: thrombin (endogenous, clotting assay in plasma or whole blood) (Homo sapiens, UniProt P00734;P00734 P00734:328-363,P00734:364-622)
# method-summary: inhibition; ACT at 10 uM aptamer
recorded-metric: activity (s)
A number alone suffices; assume s.

Answered cases to consult:
binder: TTTTTTCTGCCTAGGTTGGGTAGGGTGGTGGCAGTTTTTT (ssDNA) [ARC2196]
unit-string: s
activity: 441

binder: TTTTTTCCTCAGGGATGGTGTGGGTGGCTGAGGTTTTTT (ssDNA) [ARC2190]
unit-string: s
activity: 389

binder: TTTCTGCCTAGGTTGGGTAGGGTGGTGGCAGTTT (ssDNA) [ARC2195]
unit-string: s
activity: 438

binder: CTGCCTAGGTTGGGTAGGGTGGTGGCAGTTT (ssDNA) [ARC2191]
unit-string: s
activity: 453

binder: TTTCCTCAGGGATGGTGTGGGTGGCTGAGGTTT (ssDNA) [ARC2189]
unit-string: s
activity: 410

// next item, activity requested
Request: Look at this binder and give its reported activity. CTGCCTAGGTTGGGTAGGGTGGTGGCAGTTTTTT (ssDNA) [ARC2192]
Result: 423

These entries and their values trace back to patent US20090221680.
